Test system: Fibroblast
Experiment: Multiplex assay against human fibroblast
Format: toxicity, cell-based
Conditions: 48 h, 1 µM, compound concentration 1 uM, replicate 1
I'd appreciate it if you could supply Total Cell Count values for the items below.
# respond with the number and nothing more

query: Given `O=C(Nc1ccc(Cl)cc1)Nc1cccc(-c2cccc(N3CCCC3)n2)c1` , report its Total Cell Count on Fibroblast.
result: 135

query: Provide Total Cell Count, tested on Fibroblast, for `Cl.O=c1c2cccn2c2ccccc2n1CCCN1CCC(c2ccc(Cl)cc2)CC1` .
result: 142

query: Write down the reported Total Cell Count (system: Fibroblast) of `Cc1cc(C)c(S(=O)(=O)N(Cc2ccc(-c3cccc(S(C)(=O)=O)c3)cc2)Cc2ccc(C(F)(F)F)o2)c(C)c1`
result: 178

query: Report the value of Total Cell Count obtained on Fibroblast for C=C1/C(=C\C=C2/CCC[C@]3(C)[C@@H]([C@H](C)/C=C/[C@H](C)C(C)C)CC[C@@H]23)C[C@@H](O)C[C@@H]1O [DOXERCALCIFEROL] .
result: 118

query: Would you please give the reported Total Cell Count of `S=C(NCCCc1c[nH]cn1)NCCCN(Cc1ccc(Cl)c(Cl)c1)c1ccc(Br)cn1` with Fibroblast?
result: 184

query: Enter measured Total Cell Count, system Fibroblast, for the compound shown: `Cl.Oc1ccc2c3c1O[C@H]1c4[nH]c5c(c4C[C@@]4(O)[C@@H](C2)N(CC2CC2)CC[C@]314)C[C@@]1(O)[C@H]2Cc3ccc(O)c4c3[C@@]1(CCN2CC1CC1)[C@H]5O4`
result: 85

query: Find Total Cell Count for CCOc1cc2ncc(C#N)c(Nc3ccc(OCc4ccccn4)c(Cl)c3)c2cc1NC(=O)/C=C/CN(C)C [NERATINIB] on Fibroblast and write it down.
result: 122

query: Give measured Total Cell Count for `O=C(Nc1ccc(-c2ccnc(Nc3ccc(N4CCOCC4)cc3)n2)cc1)[C@@H]1CCCN1` (Fibroblast).
result: 111

query: System Fibroblast. Read-out Total Cell Count. Item O=C1NC(=O)C(c2cnc3ccccn23)=C1c1cn2c3c(cc(F)cc13)CN(C(=O)N1CCCCC1)CC2 [LY-2090314] . Report value.
result: 127

---

For each record, write down the corresponding Total Cell Count.
Test system: U2OS
Assay: Multiplex assay against U2OS
Format: toxicity, cell-based
Details: human, 12 h, 10 µM, compound concentration 10 uM, replicate 2
Could you respond with only the numeric value?

query: Query Total Cell Count for CN1CCN(C(=O)C(C)(C)c2ccc(C(=O)Nc3cn4cc(-c5cc(C(C)(C)C)cc(C(C)(C)C)c5)ccc4n3)cc2)CC1 [T3-CLK-N]
result: 120

query: Entry COc1ccc(-c2ccc3c(N4CCOCC4)nc(N4C[C@@H](C)O[C@@H](C)C4)nc3n2)cc1CO [Ku-0063794] needs its Total Cell Count filled in; supply it.
result: 164

query: Tell me measured Total Cell Count for CCCn1c(=O)c2[nH]c(-c3cnn(Cc4cccc(C(F)(F)F)c4)c3)nc2n(CC)c1=O [GS 6201] please.
result: 98

query: Note down Total Cell Count recorded for `O=C1N/C(=N/c2ccccc2F)S/C1=C\c1ccc(C(=O)O)cc1`
result: 59

---

Test system: U2OS
Experiment: Multiplex assay against U2OS
Assay type: toxicity, cell-based
Conditions: human, 12 h, 10 µM, compound concentration 10 uM, replicate 1
// classify: if (Population Mitotic Cells (%) < 50%) true else false

query: Population Mitotic Cells (%) under 50%? Item: `CCOc1cc(C(=O)N2CCC(N3CCN(C)CC3)CC2)ccc1Nc1ncc2c(n1)N(C1CCCC1)c1ccccc1C(=O)N2C`
result: true

query: Dear reviewer, please state whether `COc1cccc2cc(-c3nc([C@H]4CC[C@H](C(=O)O)CC4)n4ncnc(N)c34)[nH]c12` has Population Mitotic Cells (%) strictly beneath 50%.
result: false

query: Determine whether this molecule shows Population Mitotic Cells (%) lower than 50% (ties excluded): CN1C2CCC1CC(OC(c1ccc(F)cc1)c1ccc(F)cc1)C2.Cl (configuration not stated)
result: true

query: Consider the molecule CN1CCC(=C2c3ccccc3CC(=O)c3sccc32)CC1.O=C(O)/C=C/C(=O)O [KETOTIFEN FUMARATE] . Is its Population Mitotic Cells (%) strictly less than 50%?
result: true

query: Answer whether the molecule `CCN1CCN(Cc2ccc(Nc3ncc(F)c(-c4cc(F)c5nc(C)n(C(C)C)c5c4)n3)nc2)CC1.CS(=O)(=O)O` has Population Mitotic Cells (%) strictly less than 50%
result: true

query: I wonder whether CCOC(=O)c1c(C)[nH]c2ccc3c(c12)CN1CCc2cc(OC)ccc2C1O3 (configuration not stated) has Population Mitotic Cells (%) below 50%. Can you tell?
result: true

query: # TODO verify Population Mitotic Cells (%) < 50% strictly for this molecule: `O=C(Nc1ccc(Cl)cc1)Nc1cccc(-c2cccc(N3CCCC3)n2)c1`
result: true

query: I wonder whether CN(C)C(=O)C(CCN1CCC(O)(c2ccc(Cl)cc2)CC1)(c1ccccc1)c1ccccc1.Cl [LOPERAMIDE HYDROCHLORIDE] has Population Mitotic Cells (%) below 50%. Can you tell?
result: true

query: In plain terms, does `Cn1nc(C(=O)NCc2ccc(C(=O)O)cc2)cc1-c1ccc2[nH]ccc2c1` come in under 50% for Population Mitotic Cells (%)?
result: false

query: For `CNc1cc(Oc2cc(C(=O)Nc3cc(N4CCN(C)CC4)cc(C(F)(F)F)c3)ccc2C)ncn1` , is the recorded Population Mitotic Cells (%) below the cut-off of 50%?
result: true

query: Does `COc1ccc(S(=O)(=O)N(CCO)c2ccccc2CN(C)C/C=C/c2ccc(Cl)cc2)cc1.O=P(O)(O)O` have Population Mitotic Cells (%) strictly under 50%?
result: true

query: Is Population Mitotic Cells (%) of `NC(=O)c1cccc(-c2cc(Nc3ccc(OC(F)(F)F)cc3)ncn2)c1` strictly below 50%?
result: true

query: Field: below-cutoff. Rule: recorded Population Mitotic Cells (%) strictly less than 50%. Subject: COc1cc2ncnc(Nc3ccc(F)c(Cl)c3)c2cc1NC(=O)/C=C/CN1CCCCC1 [DACOMITINIB ANHYDROUS]
result: false

query: Criterion: Population Mitotic Cells (%) strictly below 50%. Is it met by `O=C1NC(=O)C(c2cnc3ccccn23)=C1c1cn2c3c(cc(F)cc13)CN(C(=O)N1CCCCC1)CC2` ?
result: true

query: Is Population Mitotic Cells (%) strictly under 50% for the entry `CCn1c(=O)c(-c2ccc(-c3cncs3)cc2Cl)cc2cnc(Nc3ccc(N4CCN(C)CC4)cc3)nc21` ?
result: true
